biological target: RSV prefusion F (preF), subtype B (respiratory syncytial virus, subtype B); test: BLI, IgG
Listing: Kd of selected binders
VALUE_TYPE: Kd (nM)

- BINDER: "ADI-20999 (antibody, V domains shown, also called Ab 250) VH: QVQLQESGPVLVKPSETLSLTCTVSGGSITSSAYYWGWIRQPPGKGLEWIGSVSYSGTTSYTPSLKSRVTISGDASKEQFSLNLRSVTAADTAVYYCARQTKAFGRRDYGMDVWGQGTTVTVSS VL: QPVLTQPPSVSAAPGQKVTISCSGSNSNIGSNFVSWYQQLPGTAPKLLIYENNKRPSGIPDRFSGSKSGPSATLGITGLQTEDEADYYCGTWDTGLSAHWVFGGGTKLTVL"
  DATA_VALUE: 24.1
- BINDER: "ADI-20975 (antibody, V domains shown) VH: QVQLVESGTHVKKPGASVKVSCEASDDTFNNKGIVWVRQAPGQGLEWMGWIRPNNGNTKYAQKFQGRVTMTTDASTNTAYMELRSLRSGDTAVYYCAREQFKWNDFYFDYWGQGILVTVSS VL: SYELMQPPSVSVAPGQTATITCGGSNIGSETVHWYQQKPGQAPVLVVHDDTDRPSGIPERFSGSNSGNTATLTISGVEAGDEADFYCQVRDSRTDDVVFGGGTKLTVL"
  DATA_VALUE: 0.0958
- BINDER: "ADI-14420 (antibody, V domains shown, also called Ab 86) VH: EVQLVESGGVVVQPGGSLRLSCAASGFNFDDYAMHWVRQAPGKGLEWVSLISWDGGNTYYSDSVKGRFTISRDNGKNSLYLQMNSLRAEDTALYYCAKDIDRYSGYDYVFHYWGQGTLVTVSS VL: DIRLTQSPSTLSAYVGDRVTITCRASQSISSWLAWYQQKPGKAPKLLIYKASSLESGVPSRFTGSGSGTEFTLTISGLQPDDFATYYCQQYNSYSTFGGGTKVDIK"
  DATA_VALUE: 4.32
